The measured values listed here are drawn from patent US20130266566A1.

Assayed Target: cynomolgus PAI-1 (cynomolgus, UniProt P05121 24-402 (human entry), limits assumed)
Protocol: cell-based or functional assay
Measured Chromogenic IC50 ratio cyno/human, listed per entry.
Recorded Metric: Chromogenic IC50 ratio cyno/human (fold)

[[record]]
binder = "Antibody 15 scFv (scFv) QVQLQQSGAEVKKPGSSVKVSCKASGGTFSSYAISWVRQAPGQGLEWMGGIIPTFGTANYAQKFQGRVTITADESTSTAYMELSGLRSEDTAVYYCAREKRQWLEGHFDYWGRGTPVTVSSDIQMAQSPSFLSASIGDRVTITCRASEGIYHNLAWYQQKPGKAPKLLIYRASSLASGAPSRFSGSGSGTDFTLTISSLQPDDFATYYCQQYSNYPLTFGGGTKLEIR"
recorded_metric = "Chromogenic IC50 ratio cyno/human"
recorded_measurement = 0.3

[[record]]
binder = "Antibody 25 scFv (scFv) QVQLQQSGAEVKKPGSSVKVSCKASGGTFSSYAISWVRQAPGQGLEWMGGIIPTFGTANYAQKFQGRVTITADESTSTAYMELSGLRSEDTAVYYCARERRQWLEGHFDYWGQGTPVTVSSDIQMTQSPSFLSASIGDRVTITCRASESIYHELAWYQQKPGKAPKLLIYKASSLASGAPSRFSGSGSGTAFTLTISSLQPDDFATYYCQQYSNYPLTFGGGTKLEIK"
recorded_metric = "Chromogenic IC50 ratio cyno/human"
recorded_measurement = 0.4

[[record]]
binder = "Antibody 22 scFv (scFv) QVQLQQSGAEVKKPGSSVKVSCKASGGTFSGYAISWVRQAPGQGLEWMGGIIPTFGTANYSQKFQGRVTITADESTSTAYMELSGLRSEDTAVYYCAREKRQWLEGHFDYWGRGTPVTVSSDIQMTQSLSFLSASIGDRVTITCRASEGIYHALAWYQQKPGKAPKLLIYRASSLASGAPSRFSGSGSGTDFTLTISSLQPDDFATYYCQQYSNYPLTFGGGTKLEIK"
recorded_metric = "Chromogenic IC50 ratio cyno/human"
recorded_measurement = 0.3

[[record]]
binder = "Antibody 17 scFv (scFv) QVQLQQSGAEVKKPGSSVKVSCKASGGTFSSYAISWVRQAPGQGLEWMGGIIPTFGTANYAQKFQGRVTITADESTSTAYMELSGLRSEDTAVYYCAREKRQWLEGHFDYWGRGTPVTVSSDIQMTQSPSFLSASIGDRVTITCRASEGIYHELAWYQQKPGKAPKLLIYRASSLASGAPSRFSGSGSGTDFTLTISSLQPDDFATYYCQQYSNYPLTFGGGTKLEIK"
recorded_metric = "Chromogenic IC50 ratio cyno/human"
recorded_measurement = 0.6

